target: human αVβ3 (Homo sapiens, UniProt P05106+P06756); test: human αVβ3 HTRF binding assay; conditions: alternatively SPA-based assay
Sequence (P06756 31-992 limits assumed): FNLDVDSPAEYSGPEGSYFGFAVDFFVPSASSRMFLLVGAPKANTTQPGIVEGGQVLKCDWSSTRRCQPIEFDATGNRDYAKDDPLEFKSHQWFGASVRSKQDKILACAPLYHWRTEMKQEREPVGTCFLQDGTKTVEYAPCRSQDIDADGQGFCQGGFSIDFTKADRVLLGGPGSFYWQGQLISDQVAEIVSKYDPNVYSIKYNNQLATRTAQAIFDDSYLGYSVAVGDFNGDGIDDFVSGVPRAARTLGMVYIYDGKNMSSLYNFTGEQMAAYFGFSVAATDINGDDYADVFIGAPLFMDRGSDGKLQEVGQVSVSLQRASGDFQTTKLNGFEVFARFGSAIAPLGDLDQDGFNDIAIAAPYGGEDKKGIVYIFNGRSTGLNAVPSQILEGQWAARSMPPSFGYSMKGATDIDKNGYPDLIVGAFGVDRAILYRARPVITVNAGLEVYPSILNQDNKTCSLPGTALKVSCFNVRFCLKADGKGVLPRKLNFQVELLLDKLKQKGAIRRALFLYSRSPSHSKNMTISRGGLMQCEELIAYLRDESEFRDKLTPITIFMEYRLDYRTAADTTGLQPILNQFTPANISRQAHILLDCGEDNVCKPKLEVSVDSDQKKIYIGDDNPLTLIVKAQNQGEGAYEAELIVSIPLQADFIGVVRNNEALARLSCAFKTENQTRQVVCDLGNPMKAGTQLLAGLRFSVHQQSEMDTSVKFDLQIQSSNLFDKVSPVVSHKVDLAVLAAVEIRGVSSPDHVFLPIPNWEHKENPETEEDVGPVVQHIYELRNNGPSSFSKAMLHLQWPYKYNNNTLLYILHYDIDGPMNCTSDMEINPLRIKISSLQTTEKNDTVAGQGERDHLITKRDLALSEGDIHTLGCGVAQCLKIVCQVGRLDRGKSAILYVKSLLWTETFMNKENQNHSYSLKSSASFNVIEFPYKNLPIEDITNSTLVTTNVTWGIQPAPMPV
Sequence (P05106 27-718 limits assumed): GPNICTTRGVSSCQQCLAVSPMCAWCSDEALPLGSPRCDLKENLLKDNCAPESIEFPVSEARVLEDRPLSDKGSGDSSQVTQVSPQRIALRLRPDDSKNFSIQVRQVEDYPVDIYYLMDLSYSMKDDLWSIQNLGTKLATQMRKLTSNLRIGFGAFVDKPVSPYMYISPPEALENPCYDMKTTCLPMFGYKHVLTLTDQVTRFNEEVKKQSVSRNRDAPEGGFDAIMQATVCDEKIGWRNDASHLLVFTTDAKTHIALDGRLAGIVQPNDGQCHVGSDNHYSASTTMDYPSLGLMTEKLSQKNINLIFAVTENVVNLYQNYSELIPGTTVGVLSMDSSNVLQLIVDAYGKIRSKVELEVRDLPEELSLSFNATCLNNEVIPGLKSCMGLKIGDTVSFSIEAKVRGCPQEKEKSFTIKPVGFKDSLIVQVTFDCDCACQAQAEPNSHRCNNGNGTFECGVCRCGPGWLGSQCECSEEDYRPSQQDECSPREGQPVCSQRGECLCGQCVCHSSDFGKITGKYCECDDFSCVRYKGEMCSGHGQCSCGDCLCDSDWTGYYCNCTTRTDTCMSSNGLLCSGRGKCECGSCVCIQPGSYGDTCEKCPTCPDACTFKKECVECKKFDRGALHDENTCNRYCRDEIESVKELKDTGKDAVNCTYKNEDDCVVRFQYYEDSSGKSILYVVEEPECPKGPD
RECORDED_METRIC: IC50 (nM)

Reference set, count: 4
O=C(O)C[C@H](NC(=O)N1CC(CCc2ccc3c(n2)NCCC3)C1)c1ccc2c(c1)OCC2    4.4
O=C(O)C[C@@H](c1ccc2c(c1)OCC2)N1CC(CCCCc2ccc3c(n2)NCCC3)C1=O (stereo partly shown)    2.4
COc1ccc([C@H](CC(=O)O)NC(=O)C2CC(CCc3ccc4c(n3)NCCC4)C2)cn1 (stereo partly shown)    2
O=C(O)C[C@@H](c1cnc2ccccc2c1)N1CC(CCCCc2ccc3c(n2)NCCC3)C1=O (stereo partly shown)    2.5

[A] COc1ccc([C@H](CC(=O)O)NC(=O)[C@H]2C[C@H](CCc3ccc4c(n3)NCCC4)C2)cc1F
[B] COc1ccc([C@H](CC(=O)O)NC(=O)N2CC(CCc3ccc4c(n3)NCCC4)C2)cn1
[C] Cc1cc(C)c(S(=O)(=O)N[C@@H](CNC(=O)C2CN(CCc3ccc4c(n3)NCCC4)C2)C(=O)O)c(C)c1
[D] O=C(O)C[C@H](NC(=O)[C@H]1C[C@@H](CCc2ccc3c(n2)NCCC3)C1)c1ccc2c(c1)OCC2
Put the items in order so that reported IC50 rises from first to last. Reply with the labels, ordered as the question asks.
D, A, C, B
(D: 1.5 nM, A: 2.4 nM, C: 3.8 nM, B: 6.3 nM)
